Every entry's value here was drawn from the Human Domainome abundance scans (Beltran et al. 2025).

B1: Pre-mRNA-processing factor 40 homolog B, residues 274 to 332; numbered along this chain, Q6NWY9 (parent)
chain: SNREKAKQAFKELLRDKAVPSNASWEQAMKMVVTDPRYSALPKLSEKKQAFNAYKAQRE

# Variants of: B1
# METHOD_NOTES: abundance fitness (aPCA) (normalised: wild type 0, dead -1); higher = more abundant; growth selection in yeast, the domain comes from the species named
# SETUP_CONDITIONS: Homo sapiens
Entries and their measured abundance fitness follow.

Consider the worked cases shown below.
{"columns": ["MUTATION_DESCRIPTOR", "ENDPOINT_NAME", "RESULT"],
 "data": [
  ["P36N", "abundance fitness", -0.418],
  ["P20A", "abundance fitness", -0.451],
  ["E12F", "abundance fitness", -0.718],
  ["K30R", "abundance fitness", -0.03],
  ["R37M", "abundance fitness", -0.705]
]}

# input Any idea what abundance fitness was measured for T34P ?
# output -0.554

# input Try this variant next: A23Y
# output -0.254

# input Again, but for S1D
# output -0.357

# input And what about the variant E4S ?
# output -0.156

# input Also, M31R please.
# output -0.266

# input Another: A40E
# output -0.42

# input Follow-up item: Q8S
# output -0.362

# input And for K7I ?
# output -0.055

# input And then R37D , what is it?
# output -0.74

# input Same thing, different variant: A23T
# output -0.467
